system: human lymphoblast cell line (CEM); assay: In vitro cell proliferation assay (SRB), CEM; type: cell-based; conditions: 72 h, mean ± S.D.
Field: label. Allowed values: rule met (IC50 < 10 µM) or rule not met (IC50 >= 10 µM).

compound	experimentalSystem	answerLabel
COc1ccc2c(c1OC)C(=O)O[C@@H]2[C@H]1c2c(cc3c(c2OC)OCO3)CCN1Cc1ccc(Br)cc1 [Compound 6b]	human lymphoblast cell line (CEM)	rule met
COC(=O)CN1CCc2cc3c(c(OC)c2[C@@H]1[C@H]1OC(=O)c2c1ccc(OC)c2OC)OCO3 [Compound 6i]	human lymphoblast cell line (CEM)	rule met
COc1ccc2c(c1OC)C(=O)O[C@@H]2[C@H]1c2c(cc3c(c2OC)OCO3)CCN1Cc1ccccc1 [Compound 6a]	human lymphoblast cell line (CEM)	rule met
COc1ccc(CN2CCc3cc4c(c(OC)c3[C@@H]2[C@H]2OC(=O)c3c2ccc(OC)c3OC)OCO4)cc1 [Compound 6d]	human lymphoblast cell line (CEM)	rule met
COc1ccc2c(c1OC)C(=O)O[C@@H]2[C@H]1c2c(cc3c(c2OC)OCO3)CCN1CC(C)=O [Compound 6h]	human lymphoblast cell line (CEM)	rule met
COc1ccc2c(c1OC)C(=O)O[C@@H]2[C@H]1c2c(cc3c(c2OC)OCO3)CCN1C [Compound 1, noscapine]	human lymphoblast cell line (CEM)	rule not met
COc1ccc2c(c1OC)C(=O)O[C@@H]2[C@H]1c2c(cc3c(c2OC)OCO3)CCN1Cc1cccc(Cl)c1 [Compound 6e]	human lymphoblast cell line (CEM)	rule met
CCOC(=O)CN1CCc2cc3c(c(OC)c2[C@@H]1[C@H]1OC(=O)c2c1ccc(OC)c2OC)OCO3 [Compound 6j]	human lymphoblast cell line (CEM)	rule not met
COc1cccc(CN2CCc3cc4c(c(OC)c3[C@@H]2[C@H]2OC(=O)c3c2ccc(OC)c3OC)OCO4)c1 [Compound 6g]	human lymphoblast cell line (CEM)	rule not met
COc1ccc2c(c1OC)C(=O)O[C@@H]2[C@H]1c2c(cc3c(c2OC)OCO3)CCN1Cc1cccc(Br)c1 [Compound 6f]	human lymphoblast cell line (CEM)	rule met
COc1ccc2c(c1OC)C(=O)O[C@@H]2[C@@H]1NCCc2cc3c(c(OC)c21)OCO3 [Compound 5a]	human lymphoblast cell line (CEM)	rule met

---

Cell cycle parameters % S, 24 hours values for the compounds below.
tested on: MCF-7 cells; assay: Cell cycle analysis by flow cytometry (propidium iodide); assay type: cell-based, human; details: MCF-7, 25 µM, 24 hours

chemSmiles	Cell cycle parameters % S, 24 hours / %
COc1ccc2c(c1OC)C(=O)O[C@@H]2[C@H]1c2c(cc3c(c2OC)OCO3)CCN1Cc1ccccc1	4.94
COc1ccc2c(c1OC)C(=O)O[C@@H]2[C@@H]1NCCc2cc3c(c(OC)c21)OCO3	4.08
CCOC(=O)CN1CCc2cc3c(c(OC)c2[C@@H]1[C@H]1OC(=O)c2c1ccc(OC)c2OC)OCO3	3.09
COc1ccc2c(c1OC)C(=O)O[C@@H]2[C@H]1c2c(cc3c(c2OC)OCO3)CCN1CC(C)=O	5.92
COc1ccc2c(c1OC)C(=O)O[C@@H]2[C@H]1c2c(cc3c(c2OC)OCO3)CCN1Cc1cccc(Br)c1	6.29

---

test system: MCF-7 cells; assay: Cell cycle analysis by flow cytometry (propidium iodide); format: cell-based, human; settings: MCF-7, 25 µM, 24 hours
Recorded Cell cycle parameters % G0/G1, 24 hours by entry

molecule	Cell cycle parameters % G0/G1, 24 hours (%)
COc1ccc2c(c1OC)C(=O)O[C@@H]2[C@H]1c2c(cc3c(c2OC)OCO3)CCN1C [Compound 1, noscapine]	19.48
COc1ccc2c(c1OC)C(=O)O[C@@H]2[C@H]1c2c(cc3c(c2OC)OCO3)CCN1Cc1ccccc1 [Compound 6a]	16.28
COc1ccc2c(c1OC)C(=O)O[C@@H]2[C@H]1c2c(cc3c(c2OC)OCO3)CCN1CC(C)=O [Compound 6h]	12.25
COc1cccc(CN2CCc3cc4c(c(OC)c3[C@@H]2[C@H]2OC(=O)c3c2ccc(OC)c3OC)OCO4)c1 [Compound 6g]	20.94
COc1ccc(CN2CCc3cc4c(c(OC)c3[C@@H]2[C@H]2OC(=O)c3c2ccc(OC)c3OC)OCO4)cc1 [Compound 6d]	22.73
CCOC(=O)CN1CCc2cc3c(c(OC)c2[C@@H]1[C@H]1OC(=O)c2c1ccc(OC)c2OC)OCO3 [Compound 6j]	25.71
COC(=O)CN1CCc2cc3c(c(OC)c2[C@@H]1[C@H]1OC(=O)c2c1ccc(OC)c2OC)OCO3 [Compound 6i]	19.57
